measured-on: EPHB1 (UniProt P54762)
Sequence (P54762 whole entry, looked up): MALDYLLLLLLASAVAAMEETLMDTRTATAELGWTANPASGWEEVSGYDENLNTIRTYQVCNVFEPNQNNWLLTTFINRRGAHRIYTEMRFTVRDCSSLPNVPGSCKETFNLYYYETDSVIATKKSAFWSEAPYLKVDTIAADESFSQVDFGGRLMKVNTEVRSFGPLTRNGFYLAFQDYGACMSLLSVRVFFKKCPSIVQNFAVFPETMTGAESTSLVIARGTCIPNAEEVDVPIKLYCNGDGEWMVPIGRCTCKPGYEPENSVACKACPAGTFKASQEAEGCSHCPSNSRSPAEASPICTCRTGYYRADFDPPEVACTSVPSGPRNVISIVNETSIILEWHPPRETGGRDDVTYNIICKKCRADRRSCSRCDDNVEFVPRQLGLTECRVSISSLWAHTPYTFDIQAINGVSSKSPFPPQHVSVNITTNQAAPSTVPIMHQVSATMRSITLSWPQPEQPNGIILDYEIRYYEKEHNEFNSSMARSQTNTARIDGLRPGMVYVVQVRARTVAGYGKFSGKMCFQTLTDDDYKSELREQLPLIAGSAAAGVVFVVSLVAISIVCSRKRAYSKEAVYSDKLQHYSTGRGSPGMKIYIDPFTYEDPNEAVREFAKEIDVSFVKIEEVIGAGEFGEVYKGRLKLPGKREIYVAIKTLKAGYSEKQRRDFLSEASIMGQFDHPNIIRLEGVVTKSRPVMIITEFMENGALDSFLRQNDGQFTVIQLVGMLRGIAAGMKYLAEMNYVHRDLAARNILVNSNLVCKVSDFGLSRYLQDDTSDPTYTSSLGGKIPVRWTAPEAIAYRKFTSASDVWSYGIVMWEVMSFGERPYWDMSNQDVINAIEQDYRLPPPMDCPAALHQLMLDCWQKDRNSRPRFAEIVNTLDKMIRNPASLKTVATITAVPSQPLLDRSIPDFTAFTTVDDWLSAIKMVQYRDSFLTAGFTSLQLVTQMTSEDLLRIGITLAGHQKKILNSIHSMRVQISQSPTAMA
experimental-protocol: phosphorylation enrichment, bacterial display (enrichment ratio); higher = better substrate or ligand; peptides without Tyr show the background;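 further: 11-residue human phosphosite peptides and single-mutation variants displayed on the E. coli surface, counted by deep sequencing, each peptide's frequency after selection divided by its frequency in the unselected input library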;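 further: frequency after pTyr selection over input frequency; kinase dosed for 20-30% of maximal phosphorylation in three min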
metric-name: phosphorylation enrichment
Answers are plain numbers.

Please review the following examples before continuing.
[[record]]
biosequence = "IQKWEYVPLGT [FAH_Y244_P249T]"
measured_on = "EPHB1 (UniProt P54762)"
metric_name = "phosphorylation enrichment"
quantitative_readout = 0.768

[[record]]
biosequence = "RALLNYIASKF [GSTA3_Y74_I71L_YF]"
measured_on = "EPHB1 (UniProt P54762)"
metric_name = "phosphorylation enrichment"
quantitative_readout = 0.763

[[record]]
biosequence = "KVKPIYLHTQG [AR_Y916_F917L]"
measured_on = "EPHB1 (UniProt P54762)"
metric_name = "phosphorylation enrichment"
quantitative_readout = 0.496

[[record]]
biosequence = "LQKPMYEVQWK [KIT_Y553]"
measured_on = "EPHB1 (UniProt P54762)"
metric_name = "phosphorylation enrichment"
quantitative_readout = 2.63

[[record]]
biosequence = "EEGEEYGGGGG [TUBA1A_Y451]"
measured_on = "EPHB1 (UniProt P54762)"
metric_name = "phosphorylation enrichment"
quantitative_readout = 0.638


Batch of 6 sequences: report phosphorylation enrichment for each.
1. SPYMLYQYLKQ [RPAP3_Y567_D564Y]
2. INMKKYCKKDY [NTN1_Y490]
3. GGYNNYGYGND [HNRNPH3_Y159]
4. GLDGSYLPRDS [SH2D1A_Y29_L31P]
5. TEVIWYKGDEE
6. SLTRLYVGENA [NLRP3_Y861]

# output
1. 14.1
2. 0.424
3. 1.92
4. 0.44
5. 0.516
6. 0.357

Batch of 3 sequences: report phosphorylation enrichment for each.
1. ISRASYFRKGG [ALK_Y1282_Y1278S_YF]
2. MHDSNCVSKGS [PDGFRA_Y849_Y849C]
3. ADMETYLLEKS [MYH7_Y266_I263M]

# output
[0.4, 0.396, 0.612]
